Biological target: Glutamate receptor ionotropic, NMDA 1 (Rattus norvegicus); also: assay procedure not described here
Kindly supply the reported AC50 values for the records listed here.

Some compounds with recorded AC50:
- compound: "COc1cc2c(Nc3ccc(Br)cc3F)ncnc2cc1OCC1CCN(C)CC1"
  AC50: "> 30 µM"
- compound: "CCN(CC)C(=O)C1CN2CCc3cc(OC)c(OC)cc3C2CC1OC(C)=O (stereo not given) [BENZQUINAMIDE]"
  AC50: "> 30 µM"
- compound: "Clc1cccc(Cl)c1N=C1NCCN1"
  AC50: "> 10 µM"

Consider the following items and state reported AC50 for each.
1. CCCOC(C(=O)OC1CCN(C)CC1)(c1ccccc1)c1ccccc1
2. C#C[C@]1(O)CC[C@H]2[C@@H]3CCC4=CC(=O)CCC4=C3C=C[C@@]21CC
3. O=C(O)c1ccccc1Nc1cccc(C(F)(F)F)c1
4. Cc1cc2nc3c(=O)[nH]c(=O)nc-3n(C[C@H](O)[C@H](O)[C@H](O)COP(=O)(O)O)c2cc1C [RIBOFLAVIN 5'-PHOSPHATE]

1. > 30 µM
2. > 30 µM
3. > 10 µM
4. > 30 µM

Consider the following items and state reported AC50 for each.
1. CC(=O)Nc1c(I)c(C(=O)N[C@H]2C(O)O[C@H](CO)[C@@H](O)[C@@H]2O)c(I)c(N(C)C(C)=O)c1I (stereo not given in full) [METRIZAMIDE]
2. CC(=O)O[C@H]1C[C@@H]2CC[C@@H]3[C@H](CC[C@@]4(C)[C@H]3C[C@H]([N+]3(C)CCCCC3)[C@@H]4OC(C)=O)[C@@]2(C)C[C@@H]1[N+]1(C)CCCCC1

1: > 10 µM; 2: > 10 µM

Consider the following items and state reported AC50 for each.
1. CC(NCCc1ccc(O)cc1)C(O)c1ccc(O)cc1 (stereo not given)
2. COC(=O)N[C@@H](C)CNc1nccc(-c2cn(C(C)C)nc2-c2cc(Cl)cc(NS(C)(=O)=O)c2F)n1
3. COc1cccc(N(C)C(=S)Oc2ccc3c(c2)CCCC3)n1 [LIRANAFTATE]
4. O=C(Nc1c(Cl)cncc1Cl)c1ccc(OC(F)F)c(OCC2CC2)c1
5. C=CC(N)CCC(=O)O (stereo not given)
6. CCCCCCOC(=O)CCC(=O)CN [HEXAMINOLEVULINATE]
7. NS(=O)(=O)c1cc2c(cc1C(F)(F)F)NC(Cc1ccccc1)NS2(=O)=O (stereo not given) [BENDROFLUMETHIAZIDE]
8. Nc1nc(F)nc2c1ncn2[C@@H]1O[C@H](COP(=O)(O)O)[C@@H](O)[C@@H]1O [FLUDARABINE PHOSPHATE]

["> 30 µM", "> 30 µM", "> 30 µM", "> 30 µM", "> 10 µM", "> 30 µM", "> 10 µM", "> 30 µM"]

Consider the following items and state reported AC50 for each.
1. CC(=O)/N=c1/sc(S(N)(=O)=O)nn1C [METHAZOLAMIDE]
2. N#Cc1ccccc1-c1cc(-c2ccccn2)cn(-c2ccccc2)c1=O
3. CCCN(CCC)CCc1cccc2c1CC(=O)N2
4. CC(=O)OCC[N+](C)(C)C
5. O=C(CCCN1CCC(n2c(O)nc3ccccc32)CC1)c1ccc(F)cc1
6. CCCN(CC)C(CC)C(=O)Nc1c(C)cccc1C (stereo not given)
7. CC(C)c1cc2c(cc1S(=O)(=O)O)[C@@]1(C)CCC[C@@](C)(C(=O)O)[C@@H]1CC2

["> 10 µM", "> 30 µM", "> 10 µM", "> 10 µM", "> 30 µM", "> 30 µM", "> 30 µM"]

Consider the following items and state reported AC50 for each.
1. CC1(C)O[C@@H]2[C@@H](CO[C@@]3(COS(N)(=O)=O)OC(C)(C)O[C@@H]23)O1 [TOPIRAMATE]
2. Clc1ccc(C(Cn2ccnc2)OCc2ccc(Sc3ccccc3)cc2)c(Cl)c1 (stereo not given)
3. COC(=O)[C@H](c1ccccc1Cl)N1CCc2sccc2C1
4. O=C1NC(=O)C(c2ccccc2)(c2ccccc2)N1
5. CC(C)(C)NC[C@H](O)COc1nsnc1N1CCOCC1
6. CCOC(=O)NNc1ccc(N(CC)CC(C)O)nn1 (stereo not given)
7. CC(C)=CCOc1ccc(/C=C/C(=O)c2ccc(OCC=C(C)C)cc2OCC(=O)O)cc1
8. CCCC[C@H](C)C[C@H](O)/C=C/[C@H]1[C@H](O)CC(=O)[C@@H]1CCCC/C=C/C(=O)O

["> 10 µM", "> 30 µM", "> 30 µM", "> 10 µM", "> 30 µM", "> 30 µM", "> 30 µM", "> 30 µM"]

Consider the following items and state reported AC50 for each.
1. O=C1CN2Cc3c(ccc(Cl)c3Cl)N=C2N1 [ANAGRELIDE]
2. CC[N+]1(C)CCCC(OC(=O)C(O)(c2ccccc2)c2ccccc2)C1 (stereo not given) [PIPENZOLATE]
3. CCC(=O)O[C@@H](O[P@](=O)(CCCCc1ccccc1)CC(=O)N1C[C@H](C2CCCCC2)C[C@H]1C(=O)O)C(C)C

> 10 µM
> 30 µM
> 30 µM
